Test system: SK-MEL-28
Assay: NCI tumour cell line growth inhibition, 48 h
Calls of active or inactive are those of the source. Rule as the data show it: active = GI50 up to about 1.1 µM and inactive = higher.
measuredParameter: GI50

> print(dat)
                                    compound        valuereported
 1  Cc1ccc(S(=O)(=O)N/N=C2\CC3C4C=CC3C2C4)cc1 (stereo unspecified)  > 100 µM (inactive)
 2  CCOC(=O)C(Cc1ccc2c(c1)CCC2)Cc1ccc2c(c1)CCC2  > 100 µM (inactive)
 3  NC(=O)N/N=C(/Cc1nc2ccc(C(=O)c3ccccc3)cc2nc1O)C(=O)Nc1ccc(C(F)(F)F)cc1[N+](=O)[O-]  > 100 µM (inactive)
 4                c1ccc(COc2cccc3cccnc23)cc1  > 100 µM (inactive)
 5                       N#CCC(=O)Nc1ccccc1O  > 100 µM (inactive)
 6  Cc1nc(-c2cc3cc(Cl)ccc3oc2=O)cc2c1c(=O)oc1ccc(Cl)cc12  > 100 µM (inactive)
 7    Cc1cccc2c(N)c3cccc(C(=O)NCCNCCN)c3nc12   15.8 µM (inactive)
 8  CC[S+]([O-])c1c2cc(OC)ccc2nc2ccc(OC)cc12 (stereo unspecified)   7.91 µM (inactive)
 9            COc1ccc(CNc2cc(OC)cc(OC)c2)cc1   44.4 µM (inactive)
10           OCc1ccc2c(c1)CC1(Cc3ccccc3C1)C2   19.3 µM (inactive)
11         Cc1c(C)c2cc3c(=O)ccoc3c(C)c2oc1=O  > 100 µM (inactive)

###

System: HCC 2998
Test: NCI tumour cell line growth inhibition, 48 h
Active and inactive are the calls of the source. No stated cut-off is given here; in the data, active = GI50 up to about 1.1 µM and inactive = higher.
measuredParameter: GI50

> print(dat)
                                    molecule  testtarget  measuredparameter        valuereported
 1  COc1ccc(C2C(C#N)=C(S)N(C3OC(COC(C)=O)C(OC(C)=O)C(OC(C)=O)C3OC(C)=O)C(C)=C2C(C)=O)cc1 (stereo not drawn)    HCC 2998               GI50  > 100 µM (inactive)
 2  O=c1[nH]c(Nc2cccc(C(F)(F)F)c2)nc2[nH]cnc12    HCC 2998               GI50  > 100 µM (inactive)
 3                        CN(C)/C=C/c1ccncc1    HCC 2998               GI50  > 100 µM (inactive)
 4  COC(=O)c1ccc(C)cc1CC1Cc2cccc(C)c2C1=O (stereo not drawn)    HCC 2998               GI50   9.59 µM (inactive)
 5       Cc1cc(C)n(-c2nc3ccccc3c(=O)[nH]2)n1    HCC 2998               GI50   14.8 µM (inactive)
 6  CC1CC[C@@]2(OC1)OC1C[C@H]3[C@@H]4CCC5CC(O)CC[C@]5(C)[C@H]4C/C(=N\N(C)C)[C@]3(C)C1[C@@H]2C (stereo partly drawn)    HCC 2998               GI50   19.1 µM (inactive)
 7  CC(=O)OCC1OC(n2cc(I)c(=O)[nH]c2=O)C(OC(C)=O)C(OC(C)=O)C1OC(C)=O (stereo not drawn)    HCC 2998               GI50  > 100 µM (inactive)
 8  CC12C=C[C@]3(CC[C@@H]4[C@@](C)(CO)CCC[C@]4(C)C3CC1)C2 (stereo partly drawn)    HCC 2998               GI50   > 10 µM (inactive)
 9  O=C(Nn1c(-c2cccs2)nc2ccc(I)cc2c1=O)c1ccccc1    HCC 2998               GI50     22 µM (inactive)
10  Cc1ccc(N(C=O)c2c([N+](=O)[O-])cc([N+](=O)[O-])c3c2=[N+]([O-])CN=3)cc1    HCC 2998               GI50     14 µM (inactive)
11  CC(=O)Nc1ccc2cc3c(nc2n1)c1cccnc1n3S(=O)(=O)c1ccccc1    HCC 2998               GI50  > 100 µM (inactive)
12  COc1cc(C=C(c2ccc(N(C)C)cc2)c2ccc(N(C)C)cc2)c2ccccc2c1OC    HCC 2998               GI50   87.7 µM (inactive)
13  O=C(O)CCC(NC(=O)c1ccc(Nc2nc3cc(C(F)(F)F)ccc3nc2C(=O)O)cc1)C(=O)O (stereo not drawn)    HCC 2998               GI50  > 100 µM (inactive)
